target_of_assay: human factor D (Homo sapiens (Human), UniProt P00746)
Sequence (P00746 26-253): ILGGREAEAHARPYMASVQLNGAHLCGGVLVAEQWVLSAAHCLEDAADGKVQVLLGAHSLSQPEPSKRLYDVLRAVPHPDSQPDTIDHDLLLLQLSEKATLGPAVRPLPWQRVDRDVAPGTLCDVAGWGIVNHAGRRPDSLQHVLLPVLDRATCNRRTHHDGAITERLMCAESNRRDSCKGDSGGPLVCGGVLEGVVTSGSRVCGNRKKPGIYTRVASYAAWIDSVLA
assay_text: biochemical
Assay type: biochemical
applied_conditions: Factor D inhibition data using Method 1; recombinant human factor D 10 nM, substrate Z-Lys-thiobenzyl, fluorescence; read-out: IC50
assay_readout: pIC50
In simple prose, pIC50 is minus the logarithm base ten of a concentration in moles per litre.

[in] I have this compound here, CO[C@H]1[C@@H](C(=O)N[C@H](C)[C@H]2CC2(Cl)Cl)N(C(=O)Cn2nc(C(N)=O)c3ccccc32)C[C@@H]1F [Example 59] , and I need its recorded pIC50.
[out] 7.85

Others:
[in] I have this compound here, NC(=O)c1nn(CC(=O)N2[C@@H]3C[C@@H]3C[C@H]2C(=O)NC[C@H]2CC2(Cl)Cl)c2cc(F)c(F)cc12 [Example 96] , and I need its recorded pIC50.
[out] 6.51

[in] I have this compound here, CC(=O)c1nn(CC(=O)N2[C@@H]3C[C@@H]3C[C@H]2C(=O)NCC2CC(C)C2)c2ccc(OCc3ncccn3)cc12 (mixture of isomers) [Example 65] , and I need its recorded pIC50.
[out] 7.70

[in] I have this compound here, CC1CCCC(CNC(=O)[C@@H]2C[C@H]3C[C@H]3N2C(=O)Nc2cn(C(N)=O)c3ccccc23)C1 (stereo partly drawn) [Example 29] , and I need its recorded pIC50.
[out] 7.34

[in] I have this compound here, NC(=O)c1nn(CC(=O)N2[C@@H]3C[C@@H]3C[C@H]2C(=O)NC[C@H]2CC2(Cl)Cl)c2ccc(Cl)cc12 [Example 97] , and I need its recorded pIC50.
[out] 6.66

[in] I have this compound here, CC(=O)c1nn(CC(=O)N2[C@@H]3C[C@@H]3C[C@H]2C(=O)N[C@H](C)[C@H]2CC2(Cl)Cl)c2ccccc12 [Example 46] , and I need its recorded pIC50.
[out] 7.92

====

target_of_assay: human factor D (Homo sapiens (Human))
assay_text: biochemical
Assay type: biochemical
applied_conditions: IC50, Factor D inhibition data using Method 1; recombinant human factor D 10 nM, substrate Z-Lys-thiobenzyl, fluorescence
pIC50: −log10 of the molar value.
Respond with fulfilled for pIC50 values of 7 and above, not fulfilled for values below.

[in] Answer whether pIC50 of CC(=O)c1nn(CC(=O)N2[C@@H]3C[C@@H]3C[C@H]2C(=O)N[C@H](C)[C@H]2CC2(Cl)Cl)c2ccc(OCc3ncccn3)cc12 is greater than or equal to 7.
[out] fulfilled

Others:
[in] Answer whether pIC50 of CC(=O)c1nn(CC(=O)N2[C@@H]3C[C@@H]3C[C@H]2C(=O)NC(C)C2CC2(Cl)Cl)c2ccc(OCc3ncccn3)cc12 (single isomer, unassigned; dia 4) [Example 35] is greater than or equal to 7.
[out] not fulfilled

[in] Answer whether pIC50 of CC(=O)c1nn(CC(=O)N2[C@@H]3C[C@@H]3C[C@H]2C(=O)NC(C)C2CC2(Cl)Cl)c2ccc(OCc3ncccn3)cc12 (single isomer, unassigned; dia 3) [Example 34] is greater than or equal to 7.
[out] not fulfilled

[in] Answer whether pIC50 of CC1C(CNC(=O)[C@@H]2C[C@H]3C[C@H]3N2C(=O)Cn2nc(C(N)=O)c3ccncc32)C1(Cl)Cl (single isomer, unassigned; dia 1) [Example 81] is greater than or equal to 7.
[out] fulfilled

[in] Answer whether pIC50 of [2H]C([2H])([2H])[C@@H](NC(=O)[C@@H]1C[C@H]2C[C@H]2N1C(=O)Cn1nc(C(N)=O)c2ccccc21)[C@H]1CC1(Cl)Cl is greater than or equal to 7.
[out] fulfilled

[in] Answer whether pIC50 of CC(=O)c1nn(CC(=O)N2[C@@H]3C[C@@H]3C[C@H]2C(=O)NCC2C(C)C2(Cl)Cl)c2ccc(OCc3ncccn3)cc12 (single isomer, unassigned; dia 1) [Example 108] is greater than or equal to 7.
[out] fulfilled

[in] Answer whether pIC50 of CC1CCC(CNC(=O)[C@@H]2C[C@H]3C[C@H]3N2C(=O)Cn2nc(C(N)=O)c3ccccc32)C1 (single isomer, unassigned; dia 4) [Example 91] is greater than or equal to 7.
[out] fulfilled

[in] Answer whether pIC50 of CC1C(CNC(=O)[C@@H]2C[C@H]3C[C@H]3N2C(=O)Cn2nc(C(N)=O)c3ccccc32)C1(Cl)Cl (single isomer, unassigned; dia 1) [Example 77] is greater than or equal to 7.
[out] fulfilled

[in] Answer whether pIC50 of CC1CCC(CNC(=O)[C@@H]2C[C@H]3C[C@H]3N2C(=O)Cn2nc(C(N)=O)c3ccccc32)C1 (single isomer, unassigned; dia 2) [Example 90] is greater than or equal to 7.
[out] fulfilled

====

Reported values of pIC50 for individual entries
target_of_assay: UniProt P00746
assay_text: biochemical
Type: biochemical
applied_conditions: IC50, Factor D inhibition data using Method 1; recombinant human factor D 10 nM, substrate Z-Lys-thiobenzyl, fluorescence
In simple prose, pIC50 is minus the logarithm base ten of a concentration in moles per litre.

Take a look at these entries with their results.
[in] I have this compound here, CC1C(CNC(=O)[C@@H]2C[C@H]3C[C@H]3N2C(=O)Cn2nc(C(N)=O)c3ccccc32)C1(Cl)Cl (single isomer, unassigned; dia 1) [Example 73] , and I need its recorded pIC50.
[out] 7.00

[in] I have this compound here, NC(=O)c1nn(CC(=O)N2[C@@H]3C[C@@H]3C[C@H]2C(=O)NC(CO)C2CC2(Cl)Cl)c2ccccc12 (single isomer, unassigned; dia 3) [Example 50] , and I need its recorded pIC50.
[out] 5.14

[in] I have this compound here, CC1C(CNC(=O)[C@@H]2C[C@H]3C[C@H]3N2C(=O)Cn2nc(C(N)=O)c3ccccc32)C1(Cl)Cl (single isomer, unassigned; dia 2) [Example 78] , and I need its recorded pIC50.
[out] 7.21

[in] I have this compound here, CC(=O)c1nn(CC(=O)N2[C@@H]3C[C@@H]3C[C@H]2C(=O)NCC2C(C)C2(Cl)Cl)c2ccc(OCc3ncccn3)cc12 (single isomer, unassigned; dia 1) [Example 75] , and I need its recorded pIC50.
[out] 8.15

Others:
[in] I have this compound here, CC(=O)c1nn(CC(=O)N2[C@@H]3C[C@@H]3C[C@H]2C(=O)NCC2C(C)C2(Cl)Cl)c2ccc(OCc3ncccn3)cc12 (single isomer, unassigned; dia 2) [Example 76] , and I need its recorded pIC50.
[out] 8.52

====

target_of_assay: human factor D (Homo sapiens (Human), UniProt P00746)
assay_text: biochemical
Type: biochemical
applied_conditions: Factor D inhibition data using Method 1; recombinant human factor D 10 nM, substrate Z-Lys-thiobenzyl, fluorescence; read-out: IC50
Reported values of IC50 for individual entries
// return numeric value only (unit: nM, not printed)

[in] I have this molecule here, CC(=O)c1nn(CC(=O)N2[C@@H]3C[C@@H]3C[C@H]2C(=O)N[C@@H](C)C2CCCCC2)c2cnccc12 [Example 5] , and I need its recorded IC50.
[out] 5250

[in] I have this molecule here, CCc1cc2c(C(N)=O)nn(CC(=O)N3[C@@H]4C[C@@H]4C[C@H]3C(=O)N[C@H](C)[C@H]3CC3(Cl)Cl)c2cn1 [Example 39] , and I need its recorded IC50.
[out] 27

[in] I have this molecule here, CC(=O)c1nn(CC(=O)N2[C@@H]3C[C@@H]3C[C@H]2C(=O)NCC2CCC3(CCC3)CC2)c2cnccc12 [Example 3] , and I need its recorded IC50.
[out] 1350

[in] I have this molecule here, CC(=O)c1nn(CC(=O)N2[C@@H]3C[C@@H]3C[C@H]2C(=O)NC[C@@H]2C(C)(C)C2(Cl)Cl)c2ccc(OCc3ncccn3)cc12 [Example 103] , and I need its recorded IC50.
[out] 70

[in] I have this molecule here, NC(=O)c1nn(CC(=O)N2[C@@H]3C[C@@H]3C[C@H]2C(=O)NC[C@H]2CC2(Cl)Cl)c2cc(Cl)ccc12 [Example 114] , and I need its recorded IC50.
[out] 40

[in] I have this molecule here, CC1CCCC(CNC(=O)[C@@H]2C[C@H]3C[C@H]3N2C(=O)Cn2nc(C(N)=O)c3ccncc32)C1 (single isomer, unassigned; dia 1) [Example 115] , and I need its recorded IC50.
[out] 877

[in] I have this molecule here, CC(=O)c1nn(CC(=O)N2[C@@H]3C[C@@H]3C[C@H]2C(=O)NCC2(C)CC2(Cl)Cl)c2cnccc12 (stereo partly shown) [Example 13] , and I need its recorded IC50.
[out] 958

[in] I have this molecule here, CC(=O)c1nn(CC(=O)N2[C@@H]3C[C@@H]3C[C@H]2C(=O)NC[C@H]2CC2(Cl)Cl)c2ccc(OCc3cscn3)cc12 [Example 105] , and I need its recorded IC50.
[out] 14

[in] I have this molecule here, [2H]C([2H])([2H])[C@@H](NC(=O)[C@@H]1C[C@H]2C[C@H]2N1C(=O)Nc1cn(C(N)=O)c2ccccc12)[C@H]1CC1(Cl)Cl [Example 30] , and I need its recorded IC50.
[out] 15

[in] I have this molecule here, Cc1nccc2c(C(N)=O)nn(CC(=O)N3[C@@H]4C[C@@H]4C[C@H]3C(=O)NC[C@H]3CC3(Cl)Cl)c12 [Example 112] , and I need its recorded IC50.
[out] 188

[in] I have this molecule here, CC1CCCC1CNC(=O)[C@@H]1C[C@H]2C[C@H]2N1C(=O)Cn1nc(C(N)=O)c2ccncc21 (single isomer, unassigned; dia 3) [Example 87] , and I need its recorded IC50.
[out] 459

[in] I have this molecule here, CC(=O)c1nn(CC(=O)N2[C@@H]3C[C@@H]3C[C@H]2C(=O)NCC2CCCCC2(C)C)c2cnccc12 (single isomer, unassigned; dia 1) [Example 21] , and I need its recorded IC50.
[out] 118

[in] I have this molecule here, CC1CCCC(CNC(=O)[C@@H]2C[C@H]3C[C@H]3N2C(=O)Cn2nc(C(N)=O)c3ccncc32)C1 (single isomer, unassigned; dia 3) [Example 117] , and I need its recorded IC50.
[out] 307

[in] I have this molecule here, C[C@@H](NC(=O)[C@@H]1C[C@H]2C[C@H]2N1C(=O)Cn1nc(C(N)=O)c2ccccc21)[C@H]1CC1(Cl)Cl [Example 36] , and I need its recorded IC50.
[out] 25

[in] I have this molecule here, CC(=O)c1nn(CC(=O)N2[C@@H]3C[C@@H]3C[C@H]2C(=O)NCC2CC2(C)C)c2ncccc12 (stereo partly shown) [Example 12] , and I need its recorded IC50.
[out] 1410

[in] I have this molecule here, CC(=O)c1nn(CC(=O)N2[C@@H]3C[C@@H]3C[C@H]2C(=O)NC[C@@H]2CC2(Cl)Cl)c2ncccc12 [Example 68] , and I need its recorded IC50.
[out] 177

[in] I have this molecule here, CC(=O)c1nn(CC(=O)N2[C@@H]3C[C@@H]3C[C@H]2C(=O)NCC2C(C)(C)C2(C)C)c2ncccc12 [Example 2] , and I need its recorded IC50.
[out] 1850

[in] I have this molecule here, C[C@@H](NC(=O)[C@@H]1C[C@H]2C[C@H]2N1C(=O)Cn1nc(C(N)=O)c2ccccc21)C1CCCCC1 [Example 54] , and I need its recorded IC50.
[out] 64
